# assayed_target: T1R1/T1R3 receptor (Felis catus)
# procedure_details: Activation of T1R1/T1R3 receptor by transmembrane compounds alone or with alanine, IMP, GMP, phenylalanine; HEK293 cells, calcium fluorescence (Example 5)
# Assay type: cell-based, cat
# settings: +Alanine (20 mM)
reported_metric: +Alanine (20 mM) Max resp ΔF/F

Record +Alanine (20 mM) Max resp ΔF/F for all entries; do not skip any.
1. CCCC(C)NC(=O)/C=C/c1ccc(OC)c(OC)c1 (stereo not drawn)
2. COc1ccc(/C=C/C(=O)NC2CCCCC2C)cc1 (stereo not drawn)
3. COc1ccc(C(=O)NC(C)c2ccccc2)cc1C (stereo not drawn)
4. CC1CCCC(NC(=O)c2ccc3c(c2)OCO3)C1C (stereo not drawn)
5. CCC(CC)NC(=O)c1ccc(C)c(C)c1
6. O=C(NCCc1ccccc1)C(=O)NCc1cccnc1

Output line:
1. 0.4375 ΔF/F
2. 0.785 ΔF/F
3. 0.51 ΔF/F
4. 0.225 ΔF/F
5. 1.2150 ΔF/F
6. 0.3750 ΔF/F

* * *

Hi there, I'd appreciate the recorded Max resp % of Ala +IMP (0.2 mM) for every entry that follows.
# assayed_target: T1R1/T1R3 receptor (Felis catus, UniProt E3UMS2)
# procedure_details: Activation of T1R1/T1R3 receptor by transmembrane compounds and nucleotide derivatives, conducted as in Examples 1, 2 and 5 (Example 7)
# Format: cell-based, cat
# settings: +IMP (0.2 mM)

Answered cases to consult:
Input line: Report value: Max resp % of Ala +IMP (0.2 mM), system: T1R1/T1R3 receptor (Felis catus, UniProt E3UMS2), compound: O=C(NCCCCNC(=O)c1cccnc1)c1cccnc1 [N,N′-(butane-1,4-diyl)dinicotinamide]
Output line: 49.2 % of Ala

Input line: Report value: Max resp % of Ala +IMP (0.2 mM), system: T1R1/T1R3 receptor (Felis catus, UniProt E3UMS2), compound: CC(=O)Nc1ccc(C(=O)Nc2cc(-c3ccccc3)nn2CCO)cc1
Output line: 58.8 % of Ala

Input line: Report value: Max resp % of Ala +IMP (0.2 mM), system: T1R1/T1R3 receptor (Felis catus, UniProt E3UMS2), compound: N[C@@H](Cc1ccccc1)C(=O)O [L-Phenylalanine, reference compound]
Output line: 75.9 % of Ala

Input line: Report value: Max resp % of Ala +IMP (0.2 mM), system: T1R1/T1R3 receptor (Felis catus, UniProt E3UMS2), compound: O=P(O)(O)OP(=O)(O)OP(=O)(O)OC[C@H]1O[C@@H](n2cnc3c(Cl)ncnc32)[C@H](O)[C@@H]1O
Output line: 30.2 % of Ala

Record Max resp % of Ala +IMP (0.2 mM) for all entries; do not skip any.
1. N[C@@H](CO)C(=O)O [L-Serine, reference compound]
2. COC(=O)[C@H](Cc1ccccc1)NCc1ccccc1
3. O=C1CC(=O)N(Cc2ccccc2)C(=O)N1Cc1ccccc1
4. O=C(NCCc1ccccc1)c1cccnc1 [N-phenethylnicotinamide]
5. N[C@@H](Cc1ccc(O)cc1)C(=O)O [L-Tyrosine, reference compound]
6. Nc1ccccc1C(=O)NCCc1ccccc1 [2-amino-N-phenethylbenzamide]
7. N[C@@H](CS)C(=O)O [L-Cysteine, reference compound]

Output line:
["100.0 % of Ala", "289.4 % of Ala", "35.7 % of Ala", "149.5 % of Ala", "38.0 % of Ala", "194.5 % of Ala", "74.6 % of Ala"]

Record Max resp % of Ala +IMP (0.2 mM) for all entries; do not skip any.
1. O=C(NCCc1c[nH]c2ccccc12)c1cccnc1 [N-(2-(1H-indol-3-yl)ethyl)nicotinamide, N-(2-(1H-Indol-3-yl)ethyl)nicotinamide]
2. N[C@@H](Cc1c[nH]c2ccccc12)C(=O)O [L-Tryptophan, reference compound]
3. O=C(O)C1CCCCC1C(=O)Nc1cc(Cl)cc(Cl)c1 (stereo not shown)
4. Nc1nc2c(ncn2[C@@H]2O[C@H](COP(=O)(O)OP(=O)(O)O)[C@@H](O)[C@H]2O)c(=S)[nH]1 [6-Thioguanosine-5′-O-diphosphate]
5. O=C(NCCc1ccccc1)c1ccc2c(c1)OCO2

Output line:
1: 170.1 % of Ala; 2: 86.8 % of Ala; 3: 157.9 % of Ala; 4: 9.3 % of Ala; 5: 92.0 % of Ala

Record Max resp % of Ala +IMP (0.2 mM) for all entries; do not skip any.
1. CCCCc1nn(CC(=O)N2CCCC2)c(=O)n1Cc1ccccc1
2. C[C@H](N)C(=O)O [L-Alanine, reference compound]
3. CC(C)CC(NC(=O)c1ccccc1)C(N)=O (racemic)
4. CCOC(=O)NC(=O)C(c1ccccc1)c1ccccc1 [Ro 01-6128, reference compound]
5. O=C(NCCc1ccccc1)c1ccccc1 [N-phenethylbenzamide]
6. N[C@@H](Cc1c[nH]cn1)C(=O)O [L-Histidine, L-histidine, reference compound]

Output line:
["193.2 % of Ala", "100.0 % of Ala", "204.5 % of Ala", "199.7 % of Ala", "126.0 % of Ala", "36.3 % of Ala"]

* * *

# assayed_target: T1R1/T1R3 receptor (Felis catus, UniProt E3UMS2)
# procedure_details: Activation of T1R1/T1R3 receptor by transmembrane compounds and nucleotide derivatives, conducted as in Examples 1, 2 and 5 (Example 7)
# Assay type: cell-based, cat
# settings: +0.2 mM IMP; read-out: T1R1/T1R3 EC50
reported_metric: pEC50
One number for each entry, as −log10 of the molar value.

Input line: Consider the molecule CC(C)CC(NC(=O)c1ccccc1)C(N)=O (racemic) and give its recorded pEC50.
Output line: 3.33

* * *

# assayed_target: cat T1R1/T1R3 receptor (Felis catus)
# procedure_details: cell-based
# Type: cell-based
reported_metric: Max resp. (ΔF/F)

Record Max resp. (ΔF/F) for all entries; do not skip any.
1. Nc1ncnc2c1nc(Cl)n2[C@@H]1O[C@H](COP(=O)(O)O)C(O)C1O (stereo partly shown) [8-Chloroadenosine-5′-O-monophosphate]
2. NC(=O)c1ncn(C2OC(COP(=O)(O)O)C(O)C2O)c1N (stereo not shown)

Output line:
["0.79 ΔF/F", "0.6985 ΔF/F"]

* * *

# assayed_target: cat T1R1/T1R3 receptor (Felis catus, UniProt E3UMS2)
# procedure_details: cell-based
# Format: cell-based
# settings: hek293 cells
Counter-ions that a name gives are not always drawn.
Hi there, I'd appreciate the recorded Max. resp. % of IMP for every entry that follows.

Input line: Consider the compound Nc1ncnc2c1ncn2C1OC(COP(=O)(O)OS(=O)(=O)O)C(O)C1O (stereo not drawn) [Adenosine 5′-phosphosulfate sodium salt, Adenosine 5′-phosphosulfate] and give its recorded Max. resp. % of IMP.
Output line: 89.4 % of IMP

Record Max. resp. % of IMP for all entries; do not skip any.
1. O=c1ccn([C@H]2O[C@@H](COP(=O)(O)O)[C@H](O)[C@@H]2O)c(=O)[nH]1 (stereo in doubt) [Uridine 5′-monophosphate disodium salt, reference compound]
2. CNc1ccccc1C(=O)OC1C[C@H](n2cnc3c(=O)[nH]c(N)nc32)O[C@@H]1COP(=O)(O)O (stereo in doubt)
3. Nc1ncnc2c1ncn2[C@@H]1O[C@H](COP(=O)(O)O)[C@@H](O)[C@H]1O [Adenosine 5′-monophosphate disodium salt, reference compound]
4. NC(=O)c1ncn(C2OC(COP(=O)(O)O)C(O)C2O)n1 (stereo not drawn) [Ribavirin 5′-Monophosphate]
5. CC(=O)Nc1nc2c(ncn2[C@@H]2O[C@H](COP(=O)(O)O)[C@@H](O)[C@H]2O)c(=O)[nH]1 [N-Acetyl-5′-GMP]
6. O=P(O)(O)OC[C@H]1O[C@@H](n2cnc3c(NC4CCCC4)ncnc32)[C@H](O)[C@@H]1O
7. Nc1ncnc2c1ncn2[C@H]1CC(OP(=O)(O)O)[C@@H](COP(=O)(O)O)O1 (stereo in doubt) [2′-Deoxyadenosine-3′,5′-O-bisphosphate, 2′-deoxyadenosine-3′, 5′-O-bisphosphate]

Output line:
1: 23.9 % of IMP; 2: 23.7 % of IMP; 3: 159.8 % of IMP; 4: 158.0 % of IMP; 5: 137.9 % of IMP; 6: 127.2 % of IMP; 7: 76.4 % of IMP

Record Max. resp. % of IMP for all entries; do not skip any.
1. O=P(O)(O)OC[C@H]1O[C@@H](n2cnc3cncnc32)[C@H](O)[C@@H]1O [Purine riboside-5′-O-monophosphate, reference compound]
2. Nc1nc2c(nc(Br)n2[C@@H]2O[C@H](COP(=O)(O)O)[C@@H](O)[C@H]2O)c(=O)[nH]1 [8-Bromoguanosine-5′-O-monophosphate]
3. O=c1nc[nH]c2c1ncn2C1O[C@H](COP(=O)(O)OP(=O)(O)OP(=O)(O)O)[C@@H](O)[C@H]1O (stereo partly drawn) [trisodium salt]
4. O=P(O)(O)OP(=O)(O)OP(=O)(O)OC[C@H]1O[C@@H](n2cnc3c(Cl)ncnc32)[C@H](O)[C@@H]1O

Output line:
["209.3 % of IMP", "30.2 % of IMP", "25.1 % of IMP", "50.4 % of IMP"]

Record Max. resp. % of IMP for all entries; do not skip any.
1. CNc1ncnc2c1ncn2[C@@H]1O[C@H](COP(=O)(O)O)[C@@H](O)[C@H]1O [N6-Methyladenosine 5′-monophosphate]
2. O=c1[nH]cnc2c1ncn2C1CC(O)C(COP(O)(O)=S)O1 (stereo not drawn)
3. Nc1nc2c(ncn2[C@H]2C[C@H](O)[C@@H](COP(O)(O)=S)O2)c(=O)[nH]1

Output line:
1: 102.3 % of IMP; 2: 83.5 % of IMP; 3: 87.2 % of IMP

Record Max. resp. % of IMP for all entries; do not skip any.
1. O=P(O)(O)OC[C@H]1O[C@@H](n2cnc3c2ncn2ccnc32)[C@H](O)[C@@H]1O [1,N6-Ethenoadenosine-5′-O-monophosphate]
2. CNc1ccccc1C(=O)O[C@H]1C[C@H](n2cnc3c(N)ncnc32)O[C@@H]1COP(=O)(O)O
3. Nc1ncnc2c1ncn2[C@H]1C[C@H](O)[C@@H](COP(O)(O)=S)O1
4. O=P(O)(O)OC[C@H]1O[C@@H](n2cnc3c(Cl)ncnc32)C(O)C1O (stereo partly drawn)
5. Nc1ncnc2c1ncn2[C@H]1C[C@H](O)[C@@H](COP(=O)(O)O)O1 [2′-Deoxyadenosine 5′-monophosphate]
6. Nc1nc2c(ncn2[C@@H]2O[C@H](COP(=O)(O)OP(=O)(O)OP(=O)(O)O)[C@@H](O)[C@H]2O)c(=O)[nH]1 [Guanosine 5′-triphosphate]

Output line:
152.5 % of IMP
32.0 % of IMP
83.5 % of IMP
123.3 % of IMP
118.8 % of IMP
145.5 % of IMP

Record Max. resp. % of IMP for all entries; do not skip any.
1. Nc1ncnc2c1nc(Cl)n2[C@@H]1O[C@H](COP(=O)(O)O)C(O)C1O (stereo partly drawn) [8-Chloroadenosine-5′-O-monophosphate]
2. Nc1nc2c(ncn2[C@@H]2O[C@H](COP(O)(O)=S)C(O)C2O)c(=O)[nH]1 (stereo partly drawn) [Guanosine-5′-monophosphorothioate]
3. Nc1nc2c(ncn2[C@H]2CC(O)[C@@H](COP(O)(O)=S)O2)c(=O)[nH]1 (stereo in doubt)
4. Nc1ncnc2c1ncn2C1OC(COP(=O)(O)O)C(OP(=O)(O)O)C1O (stereo not drawn) [Adenosine 3′,5′-diphosphate sodium salt, adenosine 3′, 5′ diphosphate sodium salt]
5. Nc1nc2c(ncn2[C@@H]2O[C@H](COP(=O)(O)OP(=O)(O)O)[C@@H](O)[C@H]2O)c(=S)[nH]1 [6-Thioguanosine-5′-O-diphosphate]

Output line:
1. 63.6 % of IMP
2. 103.8 % of IMP
3. 86.7 % of IMP
4. 98.9 % of IMP
5. 152.8 % of IMP

Input line: Consider the compound NC(=O)c1ncn(C2OC(COP(=O)(O)O)C(O)C2O)c1N (stereo not drawn) and give its recorded Max. resp. % of IMP.
Output line: 72.2 % of IMP
